Please respond with reported ligand binding stoichiometry, CYP121 Monomer for every item in the list.
target: CYP121 (Mycobacterium tuberculosis, UniProt P9WPP7); assay: Native mass spectrometry of CYP121 with ligands; type: binding; conditions: Protein-Ligand Ratio 1:0.5
Sequence (P9WPP7 whole entry): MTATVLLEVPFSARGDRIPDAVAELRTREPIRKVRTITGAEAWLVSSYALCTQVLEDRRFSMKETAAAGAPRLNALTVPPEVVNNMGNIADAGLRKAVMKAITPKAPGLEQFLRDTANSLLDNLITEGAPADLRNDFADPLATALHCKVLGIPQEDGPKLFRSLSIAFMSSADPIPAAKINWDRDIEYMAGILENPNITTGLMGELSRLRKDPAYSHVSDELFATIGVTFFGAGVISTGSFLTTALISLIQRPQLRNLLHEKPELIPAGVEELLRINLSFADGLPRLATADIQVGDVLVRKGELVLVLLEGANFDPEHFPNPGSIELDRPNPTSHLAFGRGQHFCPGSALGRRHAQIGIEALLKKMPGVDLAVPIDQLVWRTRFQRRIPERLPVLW
Numbers only.

// for each molecule below, give its ligand binding stoichiometry, CYP121 Monomer
1. COc1ccc(-c2n[nH]c(N)c2-c2cccc(-c3cccc(N)c3)c2)cc1 [24a]
2. Oc1ccc(CNc2[nH]nc(-c3ccc(O)cc3)c2-c2ccc(O)cc2)cc1 [26a]

Solution:
1: 0; 2: 0

* * *

Please respond with reported LE (ligand efficiency) for every item in the list.
biological target: CYP121 (Mycobacterium tuberculosis, UniProt P9WPP7); format: binding; conditions: Gibbs free energy of binding to CYP121 divided by number of heavy atoms (ΔG/HA)
One number for each entry.

Sample answers from the record:
molecule: Oc1ccc(-c2n[nH]c(NCc3ccco3)c2-c2ccc(O)cc2)cc1 [26d]
value.measured: 0.24
--
molecule: Oc1ccc(-c2n[nH]c(NCc3ccncc3)c2-c2ccc(O)cc2)cc1 [26g]
value.measured: 0.18

The record that follows has no LE (ligand efficiency) shown yet.
Exercise: Returns the measured LE (ligand efficiency) for the input molecule. Input: O=C(Nc1[nH]nc(-c2ccc(O)cc2)c1-c1ccc(O)cc1)c1ccc(O)cc1 [29b]
Solution: 0.19
